# System: Oryza sativa, (L.) Tebonnet
# assay.remarks: Rice tolerance to post-transplant applications under flooded paddy conditions (Example 187), ORYSAT (Rice, Tebonnet); note: meaning of each grade not given here
# measurement.context: Rate 0.1250 kg/ha, rated three to four weeks after treatment
Reported herbicidal effect rating ORYSAT values for the following molecules.
metric.name: herbicidal effect rating ORYSAT

* Cn1c(C(F)(F)F)cc(=O)n(-c2ccc3snc(C(=O)NS(=O)(=O)CCl)c3c2)c1=O [Example 334] | 3.0
* C=C(Cl)COC(=O)c1nsc2ccc(-n3c(=O)cc(C(F)(F)F)n(C)c3=O)cc12 | 5.0
* Cn1c(C(F)(F)F)cc(=O)n(-c2ccc3snc(COCc4ccc([N+](=O)[O-])cc4)c3c2)c1=O | 0.0
* C#CCC(C#N)(CC#C)c1nsc2ccc(-n3c(=O)cc(C(F)(F)F)n(C)c3=O)cc12 | 6.0
